- System: Saccharomyces cerevisiae;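 note: PSI is a weighted mean of sequencing reads over stability bins, variants kept only with over 10 reads, mCherry proximal and sfGFP distal, peptide attached via GGGS linker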
- method.summary: protein stability index of tFT-peptide fusion (C-terminal peptide) (PSI (0-1 scale)); higher = more stable (slower turnover)
- conditions: genetic background: cdc53-1; temperature: 37 C
observed.property: protein stability index

Consider GLGMVIIGLLIG . Its measured protein stability index is 0.342

protein stability index in this record for IIIRVTILCEQF : 0.176

Recorded protein stability index (sequence VLVVWLGICFGY ): 0.201

In plain terms, GLYLVFMGFVPC has a documented protein stability index of 0.527

Record summary for CMILVACFYLPS : reported protein stability index = 0.441

// protein stability index lookup, sequence = NVALHPGVPRKC , result: 0.715

For reference, reported protein stability index for FCLGFRFFVFFL stands at 0.291

So, VHTAIFTSWRRL ? Its protein stability index was 0.738

Record summary for FPPHFLPLVFLS : reported protein stability index = 0.587

Record summary for GGTGGAGSRGQI : reported protein stability index = 0.741

Memo: VFFCLFWFFCSF , reported protein stability index: 0.571

protein stability index measured on FMSAGVSWIFFV = 0.715

# protein stability index of VRNKFSYVLRLN = 0.678

Entry PVGLMKRFRLFI — recorded protein stability index = 0.727

protein stability index reported for this sequence PLSSHIPVHEAR : 0.744

Looking up LDVGGRRGGEHC , I found its protein stability index recorded as 0.646

GET /value?item= WWDCAVWVRCGG &field=protein stability index returns 0.471

Record summary for MSVLAFVCCLSG : reported protein stability index = 0.311

According to the records, this sequence FRCPHAVKLVLV displays protein stability index of 0.404

These entries and their values trace back to the supplement of paper PMC10724198.
